All figures here come from patent US20250361295A1.

# measurement target: T1, human LILRA2 (human, UniProt Q8N149 24-483)
# T1 construct: whole, on cells; also called hLILRA2
# T1 sequence (Q8N149 24-483): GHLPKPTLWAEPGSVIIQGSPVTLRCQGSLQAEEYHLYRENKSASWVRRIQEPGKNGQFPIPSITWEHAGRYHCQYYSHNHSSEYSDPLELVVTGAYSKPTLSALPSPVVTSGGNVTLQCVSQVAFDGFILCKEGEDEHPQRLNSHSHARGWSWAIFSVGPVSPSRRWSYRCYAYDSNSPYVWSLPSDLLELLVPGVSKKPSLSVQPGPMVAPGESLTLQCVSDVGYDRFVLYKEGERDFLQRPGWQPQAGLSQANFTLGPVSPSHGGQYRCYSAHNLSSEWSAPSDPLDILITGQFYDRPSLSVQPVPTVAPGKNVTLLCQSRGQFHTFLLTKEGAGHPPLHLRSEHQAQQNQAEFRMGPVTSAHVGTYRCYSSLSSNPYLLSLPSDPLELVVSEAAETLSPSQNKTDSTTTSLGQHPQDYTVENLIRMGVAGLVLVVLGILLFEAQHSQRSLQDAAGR
# experiment: FACS, 293F-hLILRA2 cells
Recorded measurements of MFI, one per entry
Kindly answer with a numeric value in MFI, unit omitted.

Some binders with recorded MFI:
- binder: "26-H9-B9-B7 (antibody, V domains shown, mouse monoclonal hybridoma antibody) VH: EVQRVESGGGLVQPGGSRKLSCAASGFTFSSFGMHWVRQAPEKGLEWVAYISSGSSTIYYADTVKGRFTISRDNPKNTLFLQMTSLRSEDTAMYYCARSDGKGAMDYWGQGTSVTVSS VL: DIVMTQSTSSLSASLGDRVTISCRASQDISNYLNWYQQKPDGTVKLLIYYTSRLHSGVPSRFSGSGSGTDYSLTISNLEQEDIATYFCQQGNTLPWTFGGGTKLEIK"
  units: "MFI"
  MFI: 17.9
- binder: "36-F4-H1-D9 (antibody, V domains shown, mouse monoclonal hybridoma antibody) VH: EVKLLESGGGLVQPGGSLKLSCAASGFDFSRYWMIWVRQAPEKGLEWIGEINPDSSTINYTPSLKDKFIISRDNAKNTLYLQMSKVRSEDTALYYCARPYYRYDVGYFDVWGAGTTVTVSS VL: DIVMTQAPKVLLVSAGDRVTISCKASQSVSNAVVWYQQKPGQSPKLLIFYASNRYTGVPDRFTGSGYGTDFTFSISTVQAEDLAVYFCQQDYSSPWTFGGGTKLEIK"
  units: "MFI"
  MFI: 16.5
- binder: "48-E11-H7-B5 (antibody, V domains shown, mouse monoclonal hybridoma antibody) VH: EVQLVESGGGLVKPGGSLKLSCAASGFTFSSYAMSWVRQTPEKRLEWVASITIGDDTYYPDSVKGRFTISRDHAKNILYLQVSSLRSEDTAMYSCARGVNSYGSSYRYFDVWGAGTTVTVSS VL: DIVMTQSHKFMSTSVGDRVSITCKASQDVSTAVAWYQQKPGQSPKLLIYWASTRHTGVPDRFTGSGSGTDYTLTISSVQAEDLALYYCQQHYSIPFTFGAGTKLEK"
  units: "MFI"
  MFI: 22.6
- binder: "25-G9-G4-C12 (antibody, V domains shown, mouse monoclonal hybridoma antibody) VH: EVQLVESGGDLVKPGGSLKLSCAASGFTFSSHGMSWVRQTPDKRLEWVATINSGGYYTYYPDSVKGRFTISRDNAKNTLYLQMSSLKSEDTAMYYCARGQLGNWYFDVWGAGTTVTVSS VL: DIVMTQSPAIMSASPGEKVTITCSASSSVSYMHWFQQKPGTSPKLWIYSTSNLASGVPARFSGSGSGTSYSLTISRMEAEDAATYYCQQRSSYPLTFGAGTKLELK"
  units: "MFI"
  MFI: 21.7

Next binder, MFI to be filled in.
Memo: 44-F10-B6-D4 (antibody, V domains shown, mouse monoclonal hybridoma antibody) VH: EVHLVESGGGLVKPGGSLKLSCAASGFTFSSYAMSWVRQTPEKRLEWVATISSGGSYIYYPDSVKGRFTISRDNAKNTLYLQMSSLRSEDTAMYYCARQDWDGGDYYAMDYWGQGTSVTVSS VL: DIVMTQSPSSLAVSAGEKVTMSCKSSQSVLYSSNQKNFLAWYQQKPGQSPKLLIYWASTRESGVPDRFTGSGSGTDFTLTISSVQAEDLAVYYCHQYLSSLTFGAGTKLELK , reported MFI: 24.8
